- System: HOP-18
- procedure.details: NCI tumour cell line growth inhibition, 48 h
Active and inactive are the calls of the source. Rule as the data show it: active = GI50 up to about 1.1 µM and inactive = higher.
measurement.label: GI50

1) Cc1cc2c(=O)cc(-c3ccncc3)oc2c(C(=O)O)c1C    > 100 µM (inactive)
2) COc1ccc(NC(=O)CCc2cc(-c3ccc(O)c(OC)c3)nc(NC#N)n2)cc1    > 100 µM (inactive)
3) c1cncc(CSc2nc3ccccc3nc2-c2cccs2)c1    > 100 µM (inactive)
4) CCCCc1c2c(nc3c1CCC/C3=C\c1ccccc1)C(=O)CCC2    25.6 µM (inactive)
5) CC(=O)N1CCC2(C=Nc3ccccc32)CC1    > 100 µM (inactive)
6) COc1ccc(C2ON(c3ccccn3)CC=C2C)cc1 (stereo unspecified)    > 100 µM (inactive)
7) COc1cc(-c2nn3c(=O)n(-c4ccc(Cl)cc4)c(=O)nc3s2)cc(OC)c1OC    57 µM (inactive)
8) CC(=O)N1C(=O)C(=O)c2cc(Cl)ccc21    > 100 µM (inactive)
9) COc1cc([N+](=O)[O-])ccc1NC(=O)c1cccc([N+](=O)[O-])c1O    5.32 µM (inactive)
10) CN1CCN(CCn2c3c4ccccc4ccc3c3oc(=O)c4ccccc4c32)CC1    12.6 µM (inactive)
11) CC(=O)/C(=N\O)C(=O)NCc1ccccc1    > 100 µM (inactive)
